As shown below, each of these molecules has a reported IC50 value.
Tested on: HeLa
test details: Cytotoxicity against human Hela assessed as reduction in cell viability measured after 72 hrs by MTT assay
Assay type: functional, cell-based

CC[C@@]1(O)C(=O)OCc2c1cc1n(c2=O)Cc2cc3cc(OCC(=O)N(C)CCN(C)C)ccc3nc2-1 : > 10000 nM
CC[C@@]1(O)C(=O)OCc2c1cc1n(c2=O)Cc2cc3cc(OCC(=O)N4CCN(C)CC4)ccc3nc2-1 : 2570 nM
CC[C@@]1(O)C(=O)OCc2c1cc1n(c2=O)Cc2cc3cc(OCC(=O)NCCN(C)C)ccc3nc2-1 : > 10000 nM
CC[C@@]1(O)C(=O)OCc2c1cc1n(c2=O)Cc2cc3cc(OCC(=O)N4CCCCC4)ccc3nc2-1 : 380 nM
CCc1c2c(nc3ccc(OCC(=O)N4CCCCC4)cc13)-c1cc3c(c(=O)n1C2)COC(=O)[C@]3(O)CC : 125 nM
CCN(CC)C(=O)COc1ccc2nc3c(cc2c1)Cn1c-3cc2c(c1=O)COC(=O)[C@]2(O)CC : 1010 nM
CC[C@@]1(O)C(=O)OCc2c1cc1n(c2=O)Cc2cc3cc(OCC(=O)N4CCC(N(C)C)CC4)ccc3nc2-1 : > 10000 nM
CCc1c2c(nc3ccc(OCC(=O)N4CCCC4)cc13)-c1cc3c(c(=O)n1C2)COC(=O)[C@]3(O)CC : 350 nM
CCc1c2c(nc3ccc(O)cc13)-c1cc3c(c(=O)n1C2)COC(=O)[C@]3(O)CC [7-ETHYL-10-HYDROXYCAMPTOTHECIN] : 145 nM
CC[C@@]1(O)C(=O)OCc2c1cc1n(c2=O)Cc2cc3cc(OCC(=O)N4CCCC4)ccc3nc2-1 : 1370 nM

Let us move to another entry and its IC50.
Query string: Look at this molecule and give its reported IC50. `CCN(CC)CCNC(=O)COc1ccc2nc3c(cc2c1)Cn1c-3cc2c(c1=O)COC(=O)[C@]2(O)CC`
Result string: > 10000 nM

====

Catalogue of IC50 values
Test system: NCI-H1975
test details: Cytotoxicity against human NCI-H1975 assessed as reduction in cell viability measured after 72 hrs by MTT assay
Type: functional, cell-based
measurement context: NCI-H1975, 72 h
Give your result in nM as a bare value.

CC[C@@]1(O)C(=O)OCc2c1cc1n(c2=O)Cc2cc3cc(OCC(=O)N4CCCCC4)ccc3nc2-1 : 1380

The record that follows has no IC50 shown yet.
Query string: Can you look up the measured IC50 of `CCc1c2c(nc3ccc(OCC(=O)N4CCCC4)cc13)-c1cc3c(c(=O)n1C2)COC(=O)[C@]3(O)CC` for me?
Result string: 630

====

test details: Tmax in nude BALB/c mouse serum at 8.0 mg/kg incubated up to 9 hrs, po administered via gavage by LC-MS/MS analysis
Format: ADME, organism-based
measurement type: Tmax (min)
Answer format: numeric, min implied, no suffix.

Query string: Which Tmax value is on record for `CCc1c2c(nc3ccc(OCC(=O)N4CCCCC4)cc13)-c1cc3c(c(=O)n1C2)COC(=O)[C@]3(O)CC` ?
Result string: 19.8

====

System: HCT-116
test details: Cytotoxicity against human HCT-116 assessed as reduction in cell viability measured after 72 hrs by MTT assay
Type: functional, cell-based
measurement context: HCT-116, 72 h
pIC50: −log10 of the molar value.
measurement type: pIC50

Query string: What value of pIC50 has been reported for the following compound? `CCc1c2c(nc3ccc(OCC(=O)N4CCCC4)cc13)-c1cc3c(c(=O)n1C2)COC(=O)[C@]3(O)CC`
Result string: 7.92

Query string: GET /values?readout=pIC50&item= `CC[C@@]1(O)C(=O)OCc2c1cc1n(c2=O)Cc2cc3cc(OCC(=O)N4CCN(C)CC4)ccc3nc2-1`
Result string: < 5.00

Query string: May I ask what pIC50 has been recorded for `CCN(CC)CCNC(=O)COc1ccc2nc3c(cc2c1)Cn1c-3cc2c(c1=O)COC(=O)[C@]2(O)CC` ?
Result string: < 5.00

Query string: What measured pIC50 goes with `CCc1c2c(nc3ccc(OCC(=O)N4CCCCC4)cc13)-c1cc3c(c(=O)n1C2)COC(=O)[C@]3(O)CC` ?
Result string: 8.52

Query string: Return reported pIC50; argument: `CC[C@@]1(O)C(=O)OCc2c1cc1n(c2=O)Cc2cc3cc(OCC(=O)NCCN(C)C)ccc3nc2-1`
Result string: < 5.00

Query string: Need pIC50, item `CC[C@@]1(O)C(=O)OCc2c1cc1n(c2=O)Cc2cc3cc(OCC(=O)N4CCC(N(C)C)CC4)ccc3nc2-1`
Result string: < 5.00
